Values were extracted from patent US20170173151A1.

Biological target: human CD74, naturally expressed on cells (Raji, Daudi, M4A4, NCI-H747 cells; human tonsil tissue) (human) (UniProt P04233)
Assay: cell-based or functional assay
We begin with a simple list: items and their reported IC50 of killing of Raji cells.
Supply the numeric figure in µg/mL, leaving out any unit text.

Solved cases below.
binder="HuMab-CD74-011-mcMMAF (antibody, IgG1, V domains shown, drug-linker mcMMAF alkylated to the cysteines of the reduced antibody (DAR 3.9 by HIC), Antibody-drug conjugate of HuMab-CD74-011 (IgG1,kappa)) VH: QVQLVESGGGVVQPGRSLRLSCAASGFTFSSYGMHWVRQAPDKGLEWVAVIWYDGSNKYYADSVKGRFTISRDNSKNTLYLQMNSLRAEDTAVYYCARGGTLVRGAMYGTDVWGQGTTVTVSS VL: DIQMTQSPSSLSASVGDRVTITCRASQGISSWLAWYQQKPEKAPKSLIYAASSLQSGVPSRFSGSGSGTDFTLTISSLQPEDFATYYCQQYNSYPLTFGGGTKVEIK" experimental_result=0.01
binder="HuMab-CD74-006-mcMMAF (antibody, IgG1, V domains shown, drug-linker mcMMAF alkylated to the cysteines of the reduced antibody (DAR 3.7-4.1), Antibody-drug conjugate of HuMab-CD74-006 (IgG1,kappa)) VH: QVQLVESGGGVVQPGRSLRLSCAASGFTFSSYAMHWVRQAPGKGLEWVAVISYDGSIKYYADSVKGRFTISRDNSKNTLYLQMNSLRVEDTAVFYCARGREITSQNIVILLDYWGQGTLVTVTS VL: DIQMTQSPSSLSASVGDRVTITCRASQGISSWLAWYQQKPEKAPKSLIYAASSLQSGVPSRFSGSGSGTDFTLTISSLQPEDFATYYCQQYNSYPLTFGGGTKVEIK" experimental_result=0.01

// next entry
// query Given the binder HuMab-CD74-005-vcMMAE (antibody, IgG1, V domains shown, drug-linker vcMMAE alkylated to the cysteines of the reduced antibody (DAR 3.9-4.0), Antibody-drug conjugate of HuMab-CD74-005 (IgG1,kappa); also called vcMMAE-conjugate of HuMab-CD74-005) VH: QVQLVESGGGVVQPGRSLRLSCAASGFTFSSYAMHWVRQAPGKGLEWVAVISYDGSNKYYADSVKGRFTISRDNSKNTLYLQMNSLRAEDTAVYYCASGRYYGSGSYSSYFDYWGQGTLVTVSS VL: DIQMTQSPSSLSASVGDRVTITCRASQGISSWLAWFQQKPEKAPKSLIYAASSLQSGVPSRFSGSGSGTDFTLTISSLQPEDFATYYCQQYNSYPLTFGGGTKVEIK , what is its reported IC50 of killing of Raji cells?
// result 0.11
